molecular target: Hepatocyte growth factor receptor (Homo sapiens, UniProt P08581); also: in the data inactive means no Kd found up to 30 µM
Sequence (P08581 whole entry): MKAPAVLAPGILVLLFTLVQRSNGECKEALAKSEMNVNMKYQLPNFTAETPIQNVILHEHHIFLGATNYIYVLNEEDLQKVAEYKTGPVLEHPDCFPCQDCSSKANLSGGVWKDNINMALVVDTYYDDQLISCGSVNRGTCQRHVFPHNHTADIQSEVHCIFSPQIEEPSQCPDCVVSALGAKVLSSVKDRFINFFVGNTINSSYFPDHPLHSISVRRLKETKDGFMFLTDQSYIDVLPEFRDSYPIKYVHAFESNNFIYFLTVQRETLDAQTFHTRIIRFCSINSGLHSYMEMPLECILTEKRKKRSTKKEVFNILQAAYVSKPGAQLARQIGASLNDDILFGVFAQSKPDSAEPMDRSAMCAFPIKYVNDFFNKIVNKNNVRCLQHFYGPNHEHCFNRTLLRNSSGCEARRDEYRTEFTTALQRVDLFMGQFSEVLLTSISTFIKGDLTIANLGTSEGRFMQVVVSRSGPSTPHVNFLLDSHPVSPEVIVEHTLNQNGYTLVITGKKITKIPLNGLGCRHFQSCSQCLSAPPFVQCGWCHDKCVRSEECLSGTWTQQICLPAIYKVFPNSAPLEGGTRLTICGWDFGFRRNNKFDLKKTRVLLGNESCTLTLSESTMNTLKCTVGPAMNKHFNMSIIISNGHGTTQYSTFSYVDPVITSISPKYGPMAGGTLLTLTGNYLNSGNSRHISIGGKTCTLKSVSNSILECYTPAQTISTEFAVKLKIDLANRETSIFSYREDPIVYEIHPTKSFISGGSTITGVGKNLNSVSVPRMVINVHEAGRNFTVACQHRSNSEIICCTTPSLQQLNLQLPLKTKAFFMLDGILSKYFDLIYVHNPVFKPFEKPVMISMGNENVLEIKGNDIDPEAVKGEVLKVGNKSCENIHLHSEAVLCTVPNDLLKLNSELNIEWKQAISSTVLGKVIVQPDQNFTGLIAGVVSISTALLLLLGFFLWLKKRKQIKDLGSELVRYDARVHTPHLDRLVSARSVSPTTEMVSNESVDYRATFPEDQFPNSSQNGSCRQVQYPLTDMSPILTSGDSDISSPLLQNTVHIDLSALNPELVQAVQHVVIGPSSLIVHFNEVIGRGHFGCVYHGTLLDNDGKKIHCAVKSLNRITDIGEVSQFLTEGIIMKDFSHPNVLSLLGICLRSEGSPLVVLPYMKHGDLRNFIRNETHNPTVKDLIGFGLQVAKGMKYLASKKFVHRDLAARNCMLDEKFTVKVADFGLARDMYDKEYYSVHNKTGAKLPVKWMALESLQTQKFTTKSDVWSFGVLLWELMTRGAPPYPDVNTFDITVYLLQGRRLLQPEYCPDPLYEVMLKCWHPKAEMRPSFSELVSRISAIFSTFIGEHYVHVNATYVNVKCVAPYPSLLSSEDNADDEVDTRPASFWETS
Calls of active or inactive are those of the source.
# Kd per record follows

INSERT INTO results (compound, readout_label, recorded_measurement) VALUES
  ('N[C@@H]1CCCN(c2c(/C=C3\SC(=O)NC3=O)cccc2-c2ccccc2)C1', 'Kd', '> 30 µM (inactive)');

GET /values?readout=Kd&system=Hepatocyte growth factor receptor (Homo sapiens, UniProt P08581)&item= `C=CC(=O)N1CCC(Oc2cc3c(Nc4ccc(Cl)c(Cl)c4F)ncnc3cc2OC)CC1`; also: in the data inactive means no Kd found up to 30 µM
0.794 µM

Test system Hepatocyte growth factor receptor (Homo sapiens, UniProt P08581); read-out Kd; what value for `Cn1cc(-c2ccc3nnc(C(F)(F)c4ccc5ncccc5c4)n3n2)cn1` ?; also: in the data inactive means no Kd found up to 30 µM
0.002 µM (active)

# returns recorded Kd (system: Hepatocyte growth factor receptor (Homo sapiens, UniProt P08581)) for `CC(=O)Nc1cccc(-n2c(=O)n(C3CC3)c(=O)c3c(Nc4ccc(I)cc4F)n(C)c(=O)c(C)c32)c1`; also: in the data inactive means no Kd found up to 30 µM
> 30 µM (inactive)

Hepatocyte growth factor receptor (Homo sapiens, UniProt P08581) / Kd / `CN1CC[C@@H](c2c(O)cc(O)c3c(=O)cc(-c4ccccc4Cl)oc23)[C@@H]1CO` : value?; also: in the data inactive means no Kd found up to 30 µM
6.67 µM

// lookup Kd | system=Hepatocyte growth factor receptor (Homo sapiens, UniProt P08581) | key= `COC(=O)N[C@@H](C)CNc1nccc(-c2cn(C(C)C)nc2-c2cc(Cl)cc(NS(C)(=O)=O)c2F)n1`; also: in the data inactive means no Kd found up to 30 µM
> 30 µM (inactive)

Requested read-out Kd, target or system Hepatocyte growth factor receptor (Homo sapiens, UniProt P08581), entry `CNC(=O)c1ccc(C)c(-n2c(C)cc(OCc3ccc(F)cc3F)c(Br)c2=O)c1`; also: in the data inactive means no Kd found up to 30 µM
> 30 µM (inactive)

Please provide the recorded Kd for `Cn1cc(-c2ccc(F)c(C(F)(F)F)c2)nc1C1CCN(c2ncnc3[nH]ncc23)CC1` , tested on Hepatocyte growth factor receptor (Homo sapiens, UniProt P08581). Also: in the data inactive means no Kd found up to 30 µM.
> 30 µM (inactive)

Request body: readout Kd, system Hepatocyte growth factor receptor (Homo sapiens, UniProt P08581), query Cc1cc2c(F)c(Oc3ncnn4cc(OC[C@@H](C)OC(=O)[C@H](C)N)c(C)c34)ccc2[nH]1 [BRIVANIB ALANINATE] . Return the value. Also: in the data inactive means no Kd found up to 30 µM.
> 30 µM (inactive)

# value lookup — system Hepatocyte growth factor receptor (Homo sapiens, UniProt P08581), readout Kd, item `Cc1cc([C@@H](C)Nc2ccccc2C(=O)O)c2nc(N3CCOCC3)cc(=O)n2c1`; also: in the data inactive means no Kd found up to 30 µM
> 30 µM (inactive)

Param readout= Kd; system= Hepatocyte growth factor receptor (Homo sapiens, UniProt P08581); entry= `O=C(O)[C@]1(Cc2cccc(Nc3nccs3)n2)CC[C@@H](Oc2cccc(Cl)c2F)CC1` ; returns value. Also: in the data inactive means no Kd found up to 30 µM.
> 30 µM (inactive)

Given the entry `Cc1ccc(NC(=O)c2ccc(CN3CC[C@H](N(C)C)C3)c(C(F)(F)F)c2)cc1Nc1nccc(-c2cncnc2)n1` , what Kd was observed with Hepatocyte growth factor receptor (Homo sapiens, UniProt P08581)?
> 30 µM (inactive)

What value of Kd on Hepatocyte growth factor receptor (Homo sapiens, UniProt P08581) does `COc1cc(N2CCC(N3CCN(C)CC3)CC2)ccc1Nc1ncnc(Nc2ccccc2S(=O)(=O)C(C)C)n1` have?
> 30 µM (inactive)

Please tell me: Kd of `C1=C/COCc2cc(ccc2OCCN2CCCC2)Nc2nccc(n2)-c2cccc(c2)COC/1` , system Hepatocyte growth factor receptor (Homo sapiens, UniProt P08581)?; also: in the data inactive means no Kd found up to 30 µM
> 30 µM (inactive)

Return Kd measured with Hepatocyte growth factor receptor (Homo sapiens, UniProt P08581) given this compound: `CO[C@H]1C[C@@H]2CC[C@@H](C)[C@@](O)(O2)C(=O)C(=O)N2CCCC[C@H]2C(=O)O[C@H]([C@H](C)C[C@@H]2CC[C@@H](OCCO)[C@H](OC)C2)CC(=O)[C@H](C)/C=C(\C)[C@@H](O)[C@@H](OC)C(=O)[C@H](C)C[C@H](C)/C=C/C=C/C=C/1C`
> 30 µM (inactive)
